Sourced from patent US9814699B2

Test system: HCV genotype 1b subgenomic replicon
EXPERIMENTAL_DETAILS: HCV replicon assay, genotype 1b subgenomic replicon (ET cell line, luciferase)
Assay type: cell-based
TEST_PARAMETERS: Hepatitis C virus; genotype 1b replicon ET cell line, luciferase activity measured 48 hours later; read-out: Replicon 1B pEC50 (converted)
MEASURED_METRIC: EC50 (nM)
Please respond with the number in nM and leave the unit unwritten.

Prompt: What does the data say about its EC50? Entry: COC(=O)N[C@H](C(=O)N1CCC[C@H]1c1ncc(-c2ccc(-c3ccc(-c4c[nH]c(C5CCC6(CCC(F)(F)CC6)N5C(=O)[C@@H](NC(=O)OC)C(C)C)n4)cc3)cc2)[nH]1)C(C)C (stereo partly drawn)
Response: 0.0158

Prompt: I'd like to know its EC50. The compound in question is COC(=O)N[C@H](C(=O)N1CCC[C@H]1c1ncc(-c2ccc(-c3ccc(-c4cnc([C@@H]5CC6(CN5C(=O)[C@@H](NC(=O)OC)C(C)C)O[C@@H](C)C[C@H](C)O6)[nH]4)cc3)cc2)[nH]1)C(C)C (stereo partly drawn)
Response: 0.01

Prompt: Reported EC50, compound COC(=O)N[C@H](C(=O)N1CCC[C@H]1c1ncc(-c2ccc(-c3ccc(-c4cnc(C5CCC6(CCOCC6)N5C(=O)[C@@H](NC(=O)OC)C(C)C)[nH]4)cc3)cc2)[nH]1)C(C)C (stereo partly drawn) : ____
Response: 0.0631
